Before we begin, note that these pKi values for Cannabinoid receptor 1 (Homo sapiens) originate from several publications.
pKi: −log10 of the molar value.
quantity: pKi

* O=C1C(c2ccccc2)N(c2ccc(Cl)c(Cl)c2)C(=S)N1c1ccc(Cl)c(Cl)c1 (stereo not given) | 5.70
* Cc1c(C(=O)N2CCCCCC2)oc2ccc(S(=O)(=O)N3CC(C)CC(C)C3)cc12 (stereo not given) | 6.71
* Cc1c(C(=O)NN2CCOCC2)nn(-c2ccc(Cl)cc2Cl)c1-c1ccc(I)cc1 | 7.88
* O=C(NC1CCCCC1)N1CCN(C(c2ccccc2)c2ccc(Cl)cc2F)CC1 (stereo not given) | 8.51
* O=C(NC1CC1)c1cnn(-c2ccc(Cl)cc2Cl)c1-c1ccc(I)cc1 | 6.68
* COc1ccc(-c2c(C#N)c(C(=O)NN3CCCCC3)nn2-c2ccc(F)cc2Br)cc1 | 7.49
* N[C@H]1CCCC[C@@H]1NC(=O)c1cn(-c2ccc(Cl)cc2)c(-c2ccc(Cl)cc2Cl)n1 | 6.57
* COc1cc(CNC(=O)c2nn(-c3ccc(F)cc3F)c(-n3c(C)ccc3C)c2C)c(Br)c(OC)c1OC | 6.78
* CCN(Cc1ccccc1)C(=O)c1oc2ccc(S(=O)(=O)N3CC(C)CC(C)C3)cc2c1C (stereo not given) | 7.04
* O=C(c1cc2c(cc1Cl)OC(c1ccccc1)(c1ccccc1)O2)N1CCOCC1 | 6.67
* CC(C)(C)OC(=O)NC1CCN(c2ncnc3c2nc(-c2ccccc2Cl)n3-c2ccc(Cl)cc2)CC1 | 8.82
* O=C(c1cc2c(cc1Br)OC(c1ccccc1)(c1ccccc1)O2)N1CCOCC1 | 6.06
* CCN(CC)c1ccc(CN(Cc2ccccc2)S(=O)(=O)c2ccc(C(C)C)cc2)cc1 | 6.28
* Cc1ccc(NC(=O)C2CCCCC2C)cc1CN1CCOCC1 (stereo not given) | 5.80
* Cc1c(C(=O)NCc2ccccc2)oc2ccc(S(=O)(=O)N3CC(C)CC(C)C3)cc12 (stereo not given) | 7.11
* O=C(NN1CC2CCCC2C1)c1nc(-c2ccc(Cl)cc2Cl)n(-c2ccc(Cl)cc2)n1 (stereo not given) | 6.86
* O=C(Cc1ccc(Cl)cc1)NCCC(c1ccccc1)c1ccccc1 | 5.80
* COc1ccc(C2c3ccsc3CCN2C(=O)CN(C(=O)C2CCCCC2)C(C)C)cc1 (stereo not given) | 5.59

---

pKi: −log10 of the molar value.
Across several studies, compounds have been characterized by their pKi on UniProt:P21554; a selection follows.
quantity: pKi

• COc1ccc(-c2cc(C(=O)N3CCN(C(C)=O)CC3)n(-c3cccc(C)c3)n2)c(OC)c1 = 5.71
• CCN(CC)c1ccc(CN(Cc2ccccc2)S(=O)(=O)c2ccc(F)cc2)cc1 = 6.03
• CCN(CC)c1ccc(CN(Cc2ccccc2)S(=O)(=O)c2ccc(Cl)cc2)cc1 = 6.37
• COc1ccc(S(=O)(=O)c2cc(OC)ccc2S(=O)(=O)c2ccc([C@H](C)NS(C)(=O)=O)cc2)cc1 = 6.04
• COc1ccc(C(C(=O)NCCC(c2ccccc2)c2ccccc2)c2ccccc2)cc1 (centres undefined) = 6.25
• O=C1C(c2ccc(Cl)cc2)N(c2ccc(Cl)cc2)C(=O)N1c1ccc(Cl)cc1 (centres undefined) = 5.73
• CN1CCN(NC(=O)c2cnn(-c3ccc(Cl)cc3Cl)c2-c2ccc(Br)cc2)CC1 = 5.59
• CCN(CC)c1ccc(CN(Cc2ccc(F)cc2)S(=O)(=O)c2ccc(C)cc2)cc1 = 5.65
• CCCCCNc1ccc(-c2ccc(F)cc2)cc1C(=O)NC12CC3CC(CC(C3)C1)C2 = 6.12
• O=S(=O)(C1CC1)N1CCN(C[C@@H]2CC[C@@H](c3ccc(Cl)cc3Cl)N(c3ccc(Cl)cc3)C2)CC1 = 7.36
• Cc1ccc(Cc2nsc(N3CCCN(C(=O)Nc4c(C(C)C)cccc4C(C)C)CC3)n2)cc1 = 5.75
• CCN(CC)c1ccc(CN(CC2CCCCC2)S(=O)(=O)c2ccc(C)cc2)cc1 = 6.25
• CN/C(=N/S(=O)(=O)c1ccc(C(F)(F)F)cc1)N1C[C@H](c2ccccc2)C(c2ccc(Cl)cc2)=N1 = 7.44
• CCOC(=O)c1ccc(CNC(=O)c2nn(-c3ccc(Cl)cc3Cl)c(-c3ccc(Cl)cc3)c2C)cc1 = 8.09
• O=C(NC1CCCCC1)N1CCN(C(c2ccccc2)c2c(Cl)cccc2Cl)CC1 (centres undefined) = 8.66
• CS(=O)(=O)Nc1ccc(-c2cc(C(=O)N[C@@H]3CCCC[C@H]3O)cnc2OCC2CC2)cc1 = 5.72

---

Published pKi for UniProt P21554, assembled from different documents, is shown next.
pKi: −log10 of the molar value.
Assign T whenever pKi does not fall below 7; assign F whenever it does.

• O=C(NC1CCN(c2ncnc3c2nc(-c2ccccc2Cl)n3-c2ccc(Cl)cc2)CC1)c1ccccc1F = T
• CCN(CC)c1ccc(C(NC(=O)Cc2ccccc2)NC(=O)Cc2ccccc2)cc1 = F
• Cc1ccc(C(C(=O)Nc2ccc3c(c2)OCCO3)N(C)C(=O)/C=C\c2ccc3c(c2)OCO3)cc1 (centres undefined) = F
• Cc1nc(C(F)(F)F)ccc1Cn1c(=O)c(-c2ccc(C#N)cc2)c(-c2ccc(Cl)cc2)c2nn(C(C)C)c(=O)n21 = T
• CCN1CCN(c2ncnc3oc(-c4ccccc4C(F)(F)F)nc23)CC1 = F
• O=C(Cc1ccc(Cl)cc1)NC(NC(=O)Cc1ccc(Cl)cc1)c1ccc(Cl)cc1 = F
• CCc1c(C(=O)NCCc2ccccc2)cc(C)n1-c1ccccc1 = F
• Cc1ccc(C(=O)NC2C(C)(C)[C@@H]3CC[C@@]2(C)C3)cc1CN1CCOCC1 (some centres undefined) = F
• CN(Cc1ccccc1)C(=O)N1CC(O[C@H](c2ccc(Cl)cc2)c2cccnc2Cl)C1 = T
• CN=C(NS(=O)(=O)N1CCS(=O)(=O)CC1)N1CC(c2ccccc2)C(c2ccc(Cl)cc2)=N1 (centres undefined) = F
• Cc1ccc(-c2ncc(C(=O)NC(C)C)nc2-c2ccc(C)cc2)cc1 = F
• Cc1ccc([C@H](c2ccc(Cl)cc2Cl)N2CCN(C(=O)NC3CCCCC3)CC2)cc1 = T
• O=C(NCCC(c1ccccc1)c1ccccc1)C(c1ccccc1)c1ccc(Br)cc1 (centres undefined) = F
• CNC(=NS(=O)(=O)N1CCC(F)(F)CC1)N1CCC(c2ccccc2)C(c2ccc(Cl)cc2)=N1 (centres undefined) = T
• O=C(N[C@@H]1CCCC[C@H]1O)c1cnc(OCC2CC2)c(-c2ccccc2Cl)c1 = F
• COc1cc(C(=O)O)cc(OC)c1-c1cc(C)cc(C)c1 = F
• CC(C)Oc1ccc(C(NC(=O)Cc2ccccc2)NC(=O)Cc2ccccc2)cc1 = F
• Cc1c2c(n(-c3ccc(Cl)cc3Cl)c1-c1ccc(Cl)cc1)CCN(N1CCCCC1)C2=O = T

---

pKi: −log10 of the molar value.
Assay read-out pKi on Cannabinoid receptor 1 (Homo sapiens, UniProt P21554); records merged from the literature.
Sequence (P21554 whole entry): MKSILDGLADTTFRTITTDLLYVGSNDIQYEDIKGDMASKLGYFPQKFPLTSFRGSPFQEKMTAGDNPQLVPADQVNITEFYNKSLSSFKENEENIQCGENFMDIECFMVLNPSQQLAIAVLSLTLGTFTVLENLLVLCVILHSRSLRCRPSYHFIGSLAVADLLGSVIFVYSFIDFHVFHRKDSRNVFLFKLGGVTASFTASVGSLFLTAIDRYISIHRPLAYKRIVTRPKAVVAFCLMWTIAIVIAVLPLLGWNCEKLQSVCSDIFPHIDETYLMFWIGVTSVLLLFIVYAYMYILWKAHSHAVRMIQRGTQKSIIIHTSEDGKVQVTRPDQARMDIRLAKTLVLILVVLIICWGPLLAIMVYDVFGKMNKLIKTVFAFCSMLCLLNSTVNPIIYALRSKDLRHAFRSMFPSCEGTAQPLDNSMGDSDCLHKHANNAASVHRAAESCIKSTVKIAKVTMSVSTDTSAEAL
quantity: pKi

- Cc1c(C(=O)Nc2ccc(O)cc2)nn(-c2ccc(Cl)cc2Cl)c1-c1ccc(Cl)cc1: 8.34
- O=C(NC1CCN(Cc2ccccc2)C1)c1nc(-c2ccc(Cl)cc2Cl)n(-c2ccc(Cl)cc2)n1 (centres undefined): 7.54
- CCn1nc2c(-c3ccc(Cl)cc3)c(-c3ccncc3)c(=O)n(Cc3ccc(C(F)(F)F)nc3)n2c1=O: 7.82
- O=C(NC1CCC1)[C@@H]1CC[C@@H](c2ccc(Cl)cc2Cl)N(c2ccc(Cl)cc2)C1: 7.48
- O=C(N1CCCCC1)N1CC(O[C@@H](c2ccc(Cl)cc2)c2cccnc2Cl)C1: 6.25
- Cc1c(C(=O)NN2CCCCC2)nn(C)c1-c1ccc(Cl)cc1: 4.46
- Cc1c(C(=O)NCc2ccc(Cl)cc2)nn(-c2ccc(Cl)cc2Cl)c1-n1cccc1: 6.85
- O=S(=O)(NC1CCN(c2ncnc3c2nc(-c2ccccc2Cl)n3-c2ccc(F)cc2)CC1)c1ccccc1F: 8.59

---

Multi-source literature compilation: pKi on Cannabinoid receptor 1 (Homo sapiens, UniProt P21554).
pKi: −log10 of the molar value.
quantity: pKi

- Cc1c(C(=O)NC2CCCCCC2)nn(-c2ccc(Cl)cc2Cl)c1-n1cccc1: 7.70
- CCCCCCC(C)NC(=O)c1nn(-c2ccc(Cl)cc2Cl)c(-n2c(C)ccc2C)c1C (stereo not given): 6.98
- Cc1c(C(=O)NCCC(C)(C)C)nn(-c2ccc(Cl)cc2Cl)c1-n1cccc1: 7.34
- O=C(c1nc(-c2ccc(Cl)cc2)n(-c2ccc(Cl)cc2Cl)n1)N1CCN(c2cccc(C(F)(F)F)c2)CC1: 7.49

---

Compiled notes: published Ki values involving Cannabinoid receptor 1 (Homo sapiens, UniProt P21554).
Mark each entry Met if its Ki sits below 0.006 µM, and Not met for all others.

* CN=C(NS(=O)(=O)c1ccc(Cl)cc1)N1CC(c2ccc(F)cc2)C(c2ccc(Cl)cc2)=N1 (centres undefined) | Not met
* CCCCCCCC(=O)NC(NC(=O)CCCCCCC)c1ccc(N(CC)CC)cc1 | Not met
* CCCCCCCC(=O)c1c(O)c(-c2ccc(O)cc2)c[nH]c1=O | Not met
* Cc1c(C(=O)NN2CCCCC2)nn(-c2ccc(Cl)cc2Cl)c1-c1ccc(C#CCCO)cc1 | Not met
* O=C(NC1CCCCC1)N1CCN(C(c2ccccc2)c2ccc(Br)cc2F)CC1 (centres undefined) | Met
* Cc1c(C(=O)NC(C)C(C)C)nn(-c2ccc(Cl)cc2Cl)c1-c1ccc(Cl)cc1 (centres undefined) | Not met
* COc1ccc2c(c1)OC(C)(C)c1cnn(CNC(=O)CN3CCN(c4ccccc4OC)CC3)c1-2 | Not met
* Cc1c(C(=O)NCCc2ccc(Cl)cc2)nn(-c2ccc(Cl)c(Cl)c2)c1-n1c(C)ccc1C | Not met
* N#Cc1ccc(C(=O)NCC[C@@H]2CC[C@@H](c3ccc(Cl)cc3Cl)N(c3ccc(Cl)cc3)C2)cc1 | Met
* O=S(=O)(NC1CCN(c2ncnc3c2nc(-c2ccccc2Cl)n3-c2ccc(Cl)cc2)CC1)c1ccc(F)cc1 | Met
* CN(Cc1ccccc1)C(=O)N1CC(O[C@@H](c2ccc(Cl)cc2)c2cccnc2Cl)C1 | Not met
* CCN(CC)c1ccc(C(NC(=O)/C=C/c2ccccc2)NC(=O)/C=C/c2ccccc2)cc1 | Not met
* CN1CCN(c2ncnc3oc(-c4ccccc4C(F)(F)F)nc23)CC1 | Not met
* N#Cc1cc2c(cc1C(=O)N1CCOCC1)OC(c1ccccc1)(c1ccccc1)O2 | Not met
* O=S(=O)(NC1CCN(c2ncnc3c2nc(-c2ccccc2Cl)n3-c2ccc(OC(F)F)nc2)CC1)c1ccc(F)c(F)c1 | Met
* COc1ccc(-n2c(-c3ccc(Cl)cc3Cl)nc(C(=O)NN3CCCCC3)c2C)cc1 | Not met
* Cc1ccc(-c2ncc(C(=O)NC(C)CCc3ccccc3)nc2-c2ccc(C)cc2)cc1 (centres undefined) | Met
* O=C1C(c2ccccc2)N(c2ccc(Cl)cc2)C(=O)N1c1ccc(Cl)cc1 (centres undefined) | Not met
